meta.source: the supplement of paper PMC10567573

Can you tell me protein stability index for the items I'm about to list?
B1: ZNF263 (parent)
chain: KPYKCTLCGENFSHRSNLIRHQRI

# Variants of: B1
# method-summary: protein stability index of a GFP-peptide fusion (GPS, HEK-293T) (PSI 1-6); higher = more stable;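 also: lentivirally expressed fusions sorted by FACS into six bins by GFP to DsRed ratio, PSI derived from sequencing read proportions per bin multiplied by bin number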
# condition-parameters: c terminus: a fixed tail appended
Give bare numbers.

Illustrative cases are given below, each with its answer.
T6Y; 1.98
N11R; 3.03

Below is a list of variants. For each, state its recorded protein stability index.
1. F12Q
2. I19R

[A]
1: 2.18; 2: 2.9

Below is a list of variants. For each, state its recorded protein stability index.
1. K1R
2. L18C

[A]
[2.66, 3.22]

Below is a list of variants. For each, state its recorded protein stability index.
1. G9L
2. I24Q
3. S16F
4. N17S

[A]
1.16
4.56
2.02
2.99

Below is a list of variants. For each, state its recorded protein stability index.
1. R15Q
2. S13Y
3. E10V
4. H21E
5. P2N

[A]
1: 2.43; 2: 2.89; 3: 2.56; 4: 2.58; 5: 2.49

Below is a list of variants. For each, state its recorded protein stability index.
1. R15M
2. R23L
3. G9Q
4. N11T

[A]
1: 2.85; 2: 2.82; 3: 2.79; 4: 3.59

Below is a list of variants. For each, state its recorded protein stability index.
1. N11Y
2. N11K
3. C5L
4. R20L
5. Q22I
6. N17A
7. G9F
8. E10P

[A]
1. 2.8
2. 2.98
3. 2.47
4. 2.15
5. 2.72
6. 3.59
7. 2.43
8. 2.09

Below is a list of variants. For each, state its recorded protein stability index.
1. F12C
2. T6A
3. Y3G
4. H21K
5. Y3L
6. N17W
7. E10F
8. R15V

[A]
1: 2.71; 2: 2.43; 3: 1.84; 4: 2.04; 5: 2.64; 6: 2.07; 7: 2.36; 8: 2.88
